The entries below come with measured pKd values attached.
Biological target: T1, cCEACAM5, M. fascicularis CEACAM5 ECD (35-688) (Macaca fascicularis)
T1 construct: ECD followed by a 24 amino acid extension containing a His-Tag; also called cynomolgus CEACAM5; monkey CEACAM5
T1 chain: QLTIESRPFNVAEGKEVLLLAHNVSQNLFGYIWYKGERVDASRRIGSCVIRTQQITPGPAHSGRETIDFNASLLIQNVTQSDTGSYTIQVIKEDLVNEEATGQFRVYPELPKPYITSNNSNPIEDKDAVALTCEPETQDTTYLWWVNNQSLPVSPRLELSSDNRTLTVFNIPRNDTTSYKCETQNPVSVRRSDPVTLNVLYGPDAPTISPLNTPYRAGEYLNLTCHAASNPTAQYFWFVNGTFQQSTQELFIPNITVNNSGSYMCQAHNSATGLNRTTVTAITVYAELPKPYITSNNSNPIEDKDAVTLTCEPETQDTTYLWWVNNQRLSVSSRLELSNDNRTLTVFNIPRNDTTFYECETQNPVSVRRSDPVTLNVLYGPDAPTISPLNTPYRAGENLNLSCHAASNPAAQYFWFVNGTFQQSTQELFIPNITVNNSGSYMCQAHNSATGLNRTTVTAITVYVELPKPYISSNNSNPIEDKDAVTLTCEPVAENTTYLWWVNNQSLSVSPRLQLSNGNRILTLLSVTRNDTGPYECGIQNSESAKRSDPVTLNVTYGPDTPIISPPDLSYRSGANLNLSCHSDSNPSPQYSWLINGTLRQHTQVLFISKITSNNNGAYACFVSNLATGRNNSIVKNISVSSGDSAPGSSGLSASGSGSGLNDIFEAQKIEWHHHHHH
Test: SPR (BIAcore 2000), mAb captured by anti-human Fc, antigen injected 1-500 nM
// field semantics: pKd = negative decimal log of concentration (mol/L)

Example results:
{"binder": "huMAb2-2 (antibody, V domains shown, Humanized MAb2 (VL1a + VH1a) fused to human IgG1 and human Ckappa constant domains; also called MAb2_VL1aVH1a-IgG1; MA2_VL1aVH1a-IgG1) VH: EVQLQESGPGLVKPGGSLSLSCAASGFVFSSYDMSWVRQTPERGLEWVAYISSGGGITYAPSTVKGRFTVSRDNAKNTLYLQMNSLTSEDTAVYYCAAHYFGSSGPFAYWGQGTLVTVSS VL: DIQMTQSPASLSASVGDRVTITCRASENIFSYLAWYQQKPGKSPKLLVYNTKTLAEGVPSRFSGSGSGTDFSLTISSLQPEDFATYYCQHHYGTPFTFGSGTKLEIK", "numeric_value": 7.02}
{"binder": "huMAb2-3 (antibody, human IgG1, kappa, V domains shown, Humanized MAb2, human IgG1 / Ckappa; also called MAb2_VL1cVH1a-IgG1) VH: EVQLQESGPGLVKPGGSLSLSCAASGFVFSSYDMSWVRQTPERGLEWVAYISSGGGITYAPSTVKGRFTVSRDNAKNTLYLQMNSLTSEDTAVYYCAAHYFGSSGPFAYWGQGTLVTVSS VL: DIQMTQSPASLSASVGDRVTITCRASENIFSYLAWYQQKPGKSPKLLVYNTRTLAEGVPSRFSGSGSGTDFSLTISSLQPEDFATYYCQHHYGTPFTFGSGTKLEIKR", "numeric_value": 7.13}

Measured pKd of chMAb2 (antibody, human IgG1, kappa, V domains shown, Chimeric, human IgG1, Ck isotype; also called MAb2-IgG1; chimeric MAb2) VH: EVQLQESGGVLVKPGGSLKLSCAASGFVFSSYDMSWVRQTPEKRLEWVAYISSGGGITYFPDTVQGRFTVSRDNAKNTLYLQMNSLKSEDTAIYYCAAHYFGSSGPFAYWGQGTLVTVSA VL: DIQMTQSPASLSASVGETVTITCRASENIFSYLAWYQQKQGKSPQLLVYNTKTLAEGVPSRFSGSGSGTQFSLKINSLQPEDFGSYYCQHHYGTPFTFGSGTKLEIKR : 7.28

Form field pKd, entry huMAb2-4 (antibody, human IgG1, kappa, V domains shown, Humanized MAb2, human IgG1 / Ckappa; also called MAb2_VL1d VH1-IgG1; MAb2_VL1dVH1-IgG1) VH: EVQLQESGPGLVKPGGSLSLSCAASGFVFSSYDMSWVRQTPERRLEWVAYISSGGGITYFPSTVKGRFTVSRDNAKNTLYLQMNSLTSEDTAIYYCAAHYFGSSGPFAYWGQGTLVTVSA VL: DIQMTQSPASLSASVGDTVTITCRASENIFSYLAWYQQKPGKSPKLLVYNTRTLAEGVPSRFSGSGSGTQFSLTISSLQPEDFGSYYCQHHYGTPFTFGSGTKLEIKR : 7.41
